Source listed as PubChem BioAssay (NCATS).

test.summary: AP1 Signaling Pathway (AID 357);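 further: ME-180 reporter cells stimulated with EGF at its EC50 level; on the % scale 0 is the no-effect control and ±100 the full control effect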
condition.details: ME-180 (cervical carcinoma) AP-1-bla reporter, EGF-induced, beta-lactamase ratio, 5 h; at 17.2 µM (top of the series) unless noted
Results filed as inconclusive are left out. Calls of active or inactive are those of the source. The call rests on the fitted dose curve; in most records, active means well fitted curve in either direction with a large enough effect (not every such curve was filed as active); inconclusive means small, poorly fitted or top-dose-only effect, or another doubt; inactive means flat fitted curve, though single readings scatter.
# reported activity change, negative = inhibition; entries follow

O=c1c(C=NCCN2CCNCC2)c(O)n(C2CCCCC2)c(=O)n1C1CCCCC1 = 4.2% (inactive)
COc1ccc(C(=O)CN2CCOCC2)cc1F = 1.47% (inactive)
COc1ccc2c(c1OC)C(=O)OC2c1c(O)n(C2CCCCC2)c(=O)[nH]c1=O (configuration not stated) = -13.3% (inactive)
CCCCC1(CN2CCCC2=O)C(=O)NC(=O)NC1=O = 7.49% (inactive)
COc1cc2[nH]c(=O)n(-c3cccc(Cl)c3)c(=O)c2cc1OC = 9.62% (inactive)
CCOC(=O)c1cncn1[C@@H](C)c1ccccc1 = 9.06% (inactive)

Prompt: Fill in the blank: the reported activity change, negative = inhibition of `OCCOCC#CCN1CCOCC1` is ____.
Response: 12.1% (inactive)

Prompt: Fill in the blank: the reported activity change, negative = inhibition of `CCOc1ccc(Cc2c(O)[nH]c(=O)[nH]c2=O)cc1` is ____.
Response: -3.54% (inactive)

Prompt: Fill in the blank: the reported activity change, negative = inhibition of `CCCCCCn1c(O)c(C=NCCCn2ccnc2)c(=O)[nH]c1=O` is ____.
Response: -8.92% (inactive)

Prompt: Fill in the blank: the reported activity change, negative = inhibition of CCCSP1(=S)NCCCO1 (configuration not stated) is ____.
Response: 32.4% (inactive)

Prompt: Fill in the blank: the reported activity change, negative = inhibition of `C/C(Cl)=C/CC1(CN2CCCC2=O)C(=O)NC(=O)NC1=O` is ____.
Response: -3.48% (inactive)

Prompt: Fill in the blank: the reported activity change, negative = inhibition of `C[C@H](N[C@@H](C)CCc1ccccc1)[C@H](O)c1ccc(O)cc1` is ____.
Response: 10.2% [at 38 µM] (inactive)

----------
test.summary: Cell Viability - LYMP1-002 - Assay at 40 hr (AID 994); further: nearly all actives have a fitted effect of over 60% in size
condition.details: LYMP1-002 lymphoblastoid cell viability; series mostly up to 92.2 µM
Results filed as inconclusive are left out. Activity calls are given as the source filed them. The call rests on the fitted dose curve; in most records, active means well fitted cell-killing curve with a large enough effect; inconclusive means small, poorly fitted or top-dose-only effect; inactive means flat fitted curve, though single readings scatter.
Select the correct class. Options are active, inactive and nothing else.

CC(C)CC(C)Nc1ccc(Nc2ccccc2)cc1 (stereo not drawn) = active
FC(F)(F)c1ccc(Cl)cc1 = inactive

Prompt: What outcome does the record of this test show for `C#CCO` ?
Response: inactive

Prompt: What outcome does the record of this test show for `O=[N+]([O-])C(Br)Br` ?
Response: inactive

Prompt: What outcome does the record of this test show for `C(=NC1CCCCC1)=NC1CCCCC1` ?
Response: inactive

Prompt: What outcome does the record of this test show for `Clc1ccc(C(c2ccc(Cl)cc2)C(Cl)Cl)cc1` ?
Response: active

Prompt: What outcome does the record of this test show for `CCCCCCCCn1sccc1=O` ?
Response: active

Prompt: What outcome does the record of this test show for `CC(=O)[O-].CC(=O)[O-].O.O.[Cd+2]` ?
Response: inactive

----------
# reported max response; entries follow
test.summary: qHTS assay for small molecule agonists of the antioxidant response element (ARE) signaling pathway measured by Nrf2-dependant transcriptional activity - cell viability counter screen (AID 720653); further: on the % scale 0 is the no-effect control and ±100 the full control effect
condition.details: ARE-bla HepG2 viability, CellTiter-Glo ATP luminescence, 16 h; hits give low values
Records with an inconclusive call do not appear.
Enter your answer as a number in %; do not include the unit.

Worked examples, 5 compounds total:
CCNc1nc(NC(C)(C)C)nc(SC)n1 = -11.3
C=CC1(C)OC(=O)N(c2cc(Cl)cc(Cl)c2)C1=O (stereo not drawn) = -7.58
Cc1nn(-c2cc(NS(C)(=O)=O)c(Cl)cc2Cl)c(=O)n1C(F)F = 1.41
Cc1ccccc1C(=O)Nc1cccc(OC(C)C)c1 = -14.9
C=CC(=O)OCC(CC)(COC(=O)C=C)COC(=O)C=C = -3.3

Prompt: Fill in the blank: the reported max response of `CCOP(=S)(S)OCC` is ____.
Response: 2.15

Prompt: Fill in the blank: the reported max response of CC(C)(C)C(O)C(Oc1ccc(-c2ccccc2)cc1)n1cncn1 (stereo not drawn) is ____.
Response: -1.48

Prompt: Fill in the blank: the reported max response of `CCOP(=O)(OCC)Oc1nc(Cl)c(Cl)cc1Cl` is ____.
Response: 6.34

Prompt: Fill in the blank: the reported max response of `CC(C)(C)[C@@H](O)/C(=C\c1ccc(Cl)cc1Cl)n1cncn1` is ____.
Response: 6.93

Prompt: Fill in the blank: the reported max response of CCC(C)n1c(=O)[nH]c(C)c(Br)c1=O (stereo not drawn) is ____.
Response: 4.81

Prompt: Fill in the blank: the reported max response of `CC(C)N(C(=O)COc1nnc(C(F)(F)F)s1)c1ccc(F)cc1` is ____.
Response: -9

Prompt: Fill in the blank: the reported max response of CNC(=O)Oc1cccc2c1OC(C)(C)C2O (stereo not drawn) is ____.
Response: -15.8

Prompt: Fill in the blank: the reported max response of `COP(=S)(OC)Oc1c(Cl)cc(C)cc1Cl` is ____.
Response: -1.53
